Kindly state percent viability for each of the entries shown.
system: MCF10A; assay: percent viability (nuclei count relative to siNT); higher = more viable cells; settings: 20 nM; 72 h
Put down the number, then write its unit next to it.

Q) # percent viability lookup, item AUACACAUACACGCAACACACAU [hsa-miR-466]
A) 38.7%

Q) If you can, please state the reported percent viability value of UUGUGGCUGGUCAUGAGGCUAA [hsa-miR-4474-3p] .
A) 75.4%

Q) Recorded percent viability of AGGUGGAUGCAAUGUGACCUCA [hsa-miR-3165] , please.
A) 3.1%

Q) Please look up its percent viability: AGUGAAUGAUGGGUUCUGACC [hsa-miR-1257]
A) 25.9%

Q) # percent viability lookup, item UGAGGAUAUGGCAGGGAAGGGGA [hsa-miR-3679-5p]
A) 100%

Q) Record request: percent viability value, item AUUGGACUGCUGAUGGCCCGU [hsa-miR-4529-3p]
A) 48.3%

* * *

system: MCF10A; assay: 5+ nucleoli phenotype percent effect (relative to siNT 0% and siKIF11 100%); higher = more cells with five or more nucleoli; details: 20 nM; 72 h
Consider the following sequences; for each one, report its 5+ nucleoli phenotype percent effect.
Give your result in % as a bare value.

Q) Which 5+ nucleoli phenotype percent effect value is on record for AACACACCUAUUCAAGGAUUCA [hsa-miR-362-3p] ?
A) 30.7

Q) Fill in the blank: the reported 5+ nucleoli phenotype percent effect of AGCUCUGCUGCUCACUGGCAGU [hsa-miR-3194-3p] is ____.
A) 6.75

Q) Query (sequence): ACUCAAAAUGGGGGCGCUUUCC [hsa-miR-373-5p] ; field requested: 5+ nucleoli phenotype percent effect
A) 34.3

Q) Need 5+ nucleoli phenotype percent effect, item UGAGGAGAUGCUGGGACUGA [hsa-miR-4784]
A) 22.8

Q) So what does the record say about 5+ nucleoli phenotype percent effect for UCUGUAUUCUCCUUUGCCUGCAG [hsa-miR-4742-3p] ?
A) 3.24

Q) # input sequence: CAGCCACAACUACCCUGCCACU [hsa-miR-449b-3p] ; wanted: its 5+ nucleoli phenotype percent effect
A) 1.67

Q) Given the entry UUUGUGACCUGGUCCACUAACC [hsa-miR-758-3p] , report its measured 5+ nucleoli phenotype percent effect.
A) -42

* * *

system: MCF10A; assay: one-nucleolus phenotype percent effect (relative to siNT 0% and siNOL11 100%); higher = more cells with one nucleolus (ribosome biogenesis inhibition); conditions: 20 nM; 72 h
Exercise: state measured one-nucleolus phenotype percent effect for each of the sequences provided.
Just the number in %, nothing appended.

Q) Return reported one-nucleolus phenotype percent effect; argument: CGGGGCAGCUCAGUACAGGAU [hsa-miR-486-3p]
A) 47.2

Q) Give its one-nucleolus phenotype percent effect value. Item: GGUGGAUAUUCCUUCUAUGUU [hsa-miR-376c-5p]
A) 21.9

Q) # get_value(readout='one-nucleolus phenotype percent effect', item= AAGUGAUCUAAAGGCCUACAU [hsa-miR-1245a] )
A) 10.4

Q) Which one-nucleolus phenotype percent effect is reported for this sequence? UUCAGCCAGGCUAGUGCAGUCU [hsa-miR-3157-5p]
A) 7.66

Q) // lookup one-nucleolus phenotype percent effect for GUGGCUGCACUCACUUCCUUC [hsa-miR-647]
A) 33.1

Q) What value of measured one-nucleolus phenotype percent effect is listed for GGCUAGCAACAGCGCUUACCU [hsa-miR-621] ?
A) 15.2

Q) Returns the measured one-nucleolus phenotype percent effect for the input sequence. Input: UACAGAUGCAGAUUCUCUGACUUC [hsa-miR-5683]
A) 15.3

Q) Item GGGAUAUGAAGAAAAAU [hsa-miR-3201] has what recorded one-nucleolus phenotype percent effect?
A) -15.6

Q) Look up one-nucleolus phenotype percent effect: UGCACCAUGGUUGUCUGAGCAUG [hsa-miR-767-5p]
A) -10.3

Q) I am curious: what one-nucleolus phenotype percent effect value has been reported for UUCAGCAGGAACAGCU [hsa-miR-4291] ?
A) -4.14

Q) Would you mind telling me what one-nucleolus phenotype percent effect value was observed for CAAAAACUGCAUUACUUUUGC [hsa-miR-548j-3p] ?
A) -29.2

Q) State the recorded one-nucleolus phenotype percent effect for this entry: UUCUCAAGGAGGUGUCGUUUAU [hsa-miR-513c-5p]
A) 19.8

Q) Field request: one-nucleolus phenotype percent effect | item: GGUUCUUAGCAUAGGAGGUCU [hsa-miR-2116-5p]
A) 12.8

Q) Sample GCCCGAGAGGAUCCGUCCCUGC [hsa-miR-4740-3p] — what was its one-nucleolus phenotype percent effect?
A) -18.2

Q) What one-nucleolus phenotype percent effect value was documented for this sequence, UUGUUCUUUGGUCUUUCAGCCA [hsa-miR-4677-5p] ?
A) 20.3

Q) Return reported one-nucleolus phenotype percent effect; argument: CCCUGAGACCCUAACCUUAA [hsa-miR-4324]
A) -27

Q) Give its one-nucleolus phenotype percent effect value. Item: UGGAGACGCGGCCCUGUUGGAGU [hsa-miR-139-3p]
A) 20.9

Q) What value of one-nucleolus phenotype percent effect has been recorded for this entry: CCUCUGGGCCCUUCCUCCAG [hsa-miR-326]
A) 56.9

Q) // query one-nucleolus phenotype percent effect value for entry GGGAGUGCAGGGCAGGGUUUC [hsa-miR-504-3p]
A) 14.7

Q) Fill in: one-nucleolus phenotype percent effect of UUUUAAGGACACUGAGGGAUC [hsa-miR-7856-5p] is ___
A) -30.1

Q) For the sequence UAAUCUCAGCUGGCAACUGUGA [hsa-miR-216a-5p] , what one-nucleolus phenotype percent effect is on record?
A) 6.23

Q) Param item = CGCUCUAGGCACCGCAGCA [hsa-miR-1301-5p] ; retrieve measured one-nucleolus phenotype percent effect.
A) -24.1

Q) Given UGGGAUCCAGACAGUGGGAGAA [hsa-miR-4713-3p] , state its recorded one-nucleolus phenotype percent effect.
A) -1.28

Q) Request the reported one-nucleolus phenotype percent effect associated with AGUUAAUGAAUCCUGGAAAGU [hsa-miR-569]
A) 10.3

Q) Name the reported one-nucleolus phenotype percent effect value associated with the sequence AGACACAUUUGGAGAGGGACCC [hsa-miR-642b-3p]
A) -3.17

Q) Could you tell me which one-nucleolus phenotype percent effect is on file for CGUGGAUAUUCCUUCUAUGUUU [hsa-miR-376b-5p] ?
A) 9.58

Q) What value of one-nucleolus phenotype percent effect has been recorded for this entry: UUGCUAAGUAGGCUGAGAUUGA [hsa-miR-4639-5p]
A) 11.8

Q) Which one-nucleolus phenotype percent effect is listed for GUGUUCUCUGAUGGACAG [hsa-miR-4273] ?
A) -6.59

Q) Reported one-nucleolus phenotype percent effect, sequence UUGCUCUGCUCCCCCGCCCCCAG [hsa-miR-6805-3p] : ____
A) -15.8

Q) Can you look up the measured one-nucleolus phenotype percent effect of CACCAGGGCAGAGCAGGGCUGA [hsa-miR-6753-5p] for me?
A) 68.1

Q) Field request: one-nucleolus phenotype percent effect | item: UGAGAACUGAAUUCCAUAGGCU [hsa-miR-146b-5p]
A) 0.774

Q) Look at this sequence and give its reported one-nucleolus phenotype percent effect. UCCCUUCUUCCUGGGCCCUCA [hsa-miR-5088-3p]
A) -36.6

* * *

system: MCF10A; experiment: 5+ nucleoli phenotype percent effect (relative to siNT 0% and siKIF11 100%); higher = more cells with five or more nucleoli; details: 20 nM; 72 h
# cutoff 30% applies to 5+ nucleoli phenotype percent effect; >= gives Fulfilled, < gives Not fulfilled

Q) # check: 5+ nucleoli phenotype percent effect of UCAAGUAGUUUCAUGAUAAAGG [hsa-miR-5697] is greater than or equal to 30%
A) Not fulfilled

Q) Hi, just wondering whether UCCAGCUCGGUGGCAC [hsa-miR-4267] shows 5+ nucleoli phenotype percent effect of 30% or higher.
A) Not fulfilled

Q) Could you tell me if the measured 5+ nucleoli phenotype percent effect of UAGCAAAAACUGCAGUUACUUU [hsa-miR-548p] reaches 30% or more?
A) Not fulfilled

Q) Check this sequence for 5+ nucleoli phenotype percent effect at or above 30%: ACUGAUUUCUUUUGGUGUUCAG [hsa-miR-29a-5p]
A) Not fulfilled

Q) For this sequence, is measured 5+ nucleoli phenotype percent effect 30% or higher? AAAGUCUCGCUCUCUGCCCCUCA [hsa-miR-3184-3p]
A) Fulfilled

Q) Given AUCCCUUGCAGGGGCUGUUGGGU [hsa-miR-623] , state whether its 5+ nucleoli phenotype percent effect is at least 30%.
A) Fulfilled

Q) Please indicate if the recorded 5+ nucleoli phenotype percent effect for UAGGCACACUUAAAGUUAUAGC [hsa-miR-5582-5p] meets or exceeds 30%.
A) Not fulfilled

Q) Hello, I need to know if AUGCUGACAUAUUUACUAGAGG [hsa-miR-628-5p] has measured 5+ nucleoli phenotype percent effect not below 30%. Thanks!
A) Fulfilled

Q) Reported 5+ nucleoli phenotype percent effect at or above 30%? AAAGUGCUUCCCUUUGGACUGU [hsa-miR-520a-3p]
A) Fulfilled

Q) Given UCACUGUUCAGACAGGCGGA [hsa-miR-1208] , state whether its 5+ nucleoli phenotype percent effect is at least 30%.
A) Not fulfilled

Q) Confirm if 5+ nucleoli phenotype percent effect reported for the sequence UCCUUUGCCUAUUCUAUUUAAG [hsa-miR-3121-5p] is 30% or above.
A) Not fulfilled

Q) I'd appreciate it if you could say whether UCCCUACCCCUCCACUCCCCA [hsa-miR-3162-3p] has 5+ nucleoli phenotype percent effect at least equal to 30%.
A) Fulfilled

Q) State whether the measured 5+ nucleoli phenotype percent effect reaches 30%, counting equality as reaching it, for UGCAAAAGUAAUUGCAGUUUUUG [hsa-miR-548x-5p]
A) Not fulfilled
